# Assay Notes: Hygroscopicity by dynamic vapor sorption (DVS) isothermal sorption
# Type: physicochemical
# Particulars: DVS isothermal sorption, relative humidity 20%-80%
Measured Quantity: Weight change within 20%-80% RH range (%)

Requested field: Weight change within 20%-80% RH range. Item: CC[C@H](Nc1ncnc2[nH]cnc12)c1nc2cccc(F)c2c(=O)n1-c1ccccc1 [Form VI]
0.57

Recorded Weight change within 20%-80% RH range of CC[C@H](Nc1ncnc2[nH]cnc12)c1nc2cccc(F)c2c(=O)n1-c1ccccc1 [Form II] , please.
0.46

Consider the compound shown here: CC[C@H](Nc1ncnc2[nH]cnc12)c1nc2cccc(F)c2c(=O)n1-c1ccccc1 [Form IV] What is its recorded Weight change within 20%-80% RH range?
0.27

Which Weight change within 20%-80% RH range is listed for CC[C@H](Nc1ncnc2[nH]cnc12)c1nc2cccc(F)c2c(=O)n1-c1ccccc1 [Form VIII] ?
0.84

[1] CC[C@H](Nc1ncnc2[nH]cnc12)c1nc2cccc(F)c2c(=O)n1-c1ccccc1 [Form I, reference compound]
[2] CC[C@H](Nc1ncnc2[nH]cnc12)c1nc2cccc(F)c2c(=O)n1-c1ccccc1 [Form III]
[3] CC[C@H](Nc1ncnc2[nH]cnc12)c1nc2cccc(F)c2c(=O)n1-c1ccccc1 [Form IX]
Arrange the 3 compounds from largest to smallest Weight change within 20%-80% RH range. Kindly provide the labels arranged according to the requested ordering.
1, 2, 3

Where these numbers come from: patent US20160145258A1
